# Assay System: human PDHK2 (hPDHK2) (Homo sapiens)
# Method Summary: Inhibitory action of PDHK2 activity (residual PDH activity, NADH absorbance at 340 nm)
# Assay Context: PDH/hPDHK2 complex, PDHK reaction 45 min at room temperature
pIC50: −log10 of the molar value.
pIC50 listing for selected molecules.
Measured Attribute: pIC50

[
  {
    "Molecule": "CC(=O)N1CCC(Oc2cc3n(n2)C[C@H](C)n2c-3cnc2[C@@](C)(O)C(F)(F)F)CC1 [Example 71]",
    "Reported Measurement": 7.59
  },
  {
    "Molecule": "C[C@H]1Cn2nc(C=O)cc2-c2cnc([C@@](C)(O)C(F)(F)F)n21 [Example 37]",
    "Reported Measurement": 7.68
  },
  {
    "Molecule": "C[C@H]1Cn2c(nnc2C(F)(F)F)-c2cnc([C@@](C)(O)C(F)(F)F)n21 [Example 2]",
    "Reported Measurement": 7.59
  },
  {
    "Molecule": "CC(=O)N1CCC(c2cc3n(n2)C[C@H](C)n2c-3cnc2[C@@](C)(O)C(F)(F)F)CC1 [Example 75]",
    "Reported Measurement": 7.72
  },
  {
    "Molecule": "C[C@H]1Cn2nc(OCC3COC3)cc2-c2cnc([C@@](C)(O)C(F)(F)F)n21 [Example 78]",
    "Reported Measurement": 7.77
  },
  {
    "Molecule": "C[C@H]1Cn2c(nnc2C2CC2)-c2cnc([C@@](C)(O)C(F)(F)F)n21 [Example 14]",
    "Reported Measurement": 8.20
  },
  {
    "Molecule": "C[C@H]1Cn2c(-c3ccc(C(F)(F)F)cc3)nnc2-c2cnc([C@@](C)(O)C(F)(F)F)n21 [Example 54]",
    "Reported Measurement": 8.03
  },
  {
    "Molecule": "C[C@H]1Cn2c(nnc2C(C)(C)C(F)(F)F)-c2cnc([C@@](C)(O)C(F)(F)F)n21 [Example 39]",
    "Reported Measurement": 8.09
  }
]

----------
pIC50 listing for selected molecules.
# Assay System: human PDHK2 (hPDHK2) (Homo sapiens)
# Method Summary: Inhibitory action of PDHK2 activity (residual PDH activity, NADH absorbance at 340 nm)
# Assay Context: PDH/hPDHK2 complex, PDHK reaction 45 min at room temperature
pIC50: −log10 of the molar value.

[
  {
    "Molecule": "C[C@H]1Cn2nc(O[C@H]3CCOC3)cc2-c2cnc([C@@](C)(O)C(F)(F)F)n21",
    "pIC50": 7.80
  },
  {
    "Molecule": "C[C@H]1Cn2nc(C(C)(O)C(F)(F)F)cc2-c2cnc([C@@](C)(O)C(F)(F)F)n21 (mixture of isomers)",
    "pIC50": 7.51
  },
  {
    "Molecule": "C[C@H]1Cn2nc(OCC3CCN(S(C)(=O)=O)CC3)cc2-c2cnc([C@@](C)(O)C(F)(F)F)n21",
    "pIC50": 7.85
  },
  {
    "Molecule": "C[C@H]1Cn2nc(OCC(C)(C)S(C)(=O)=O)cc2-c2cnc([C@@](C)(O)C(F)(F)F)n21",
    "pIC50": 7.38
  },
  {
    "Molecule": "C[C@H]1Cn2nc(O[C@@H]3CCOC3)cc2-c2cnc([C@@](C)(O)C(F)(F)F)n21",
    "pIC50": 7.85
  },
  {
    "Molecule": "COc1ccc(COCc2cc3n(n2)C[C@H](C)n2c-3cnc2[C@@](C)(O)C(F)(F)F)cc1",
    "pIC50": 7.54
  },
  {
    "Molecule": "C[C@H]1Cc2c(noc2C2CC2)-c2cnc([C@@](C)(O)C(F)(F)F)n21 (racemic)",
    "pIC50": 7.72
  }
]

----------
pIC50 listing for selected compounds.
# Assay System: human PDHK2 (hPDHK2) (Homo sapiens)
# Method Summary: Inhibitory action of PDHK2 activity (residual PDH activity, NADH absorbance at 340 nm)
# Assay Context: PDH/hPDHK2 complex, PDHK reaction 45 min at room temperature
pIC50: −log10 of the molar value.

[
  {
    "Compound": "C[C@H]1Cn2nc(OCCN3CCCS3(=O)=O)cc2-c2cnc([C@@](C)(O)C(F)(F)F)n21 [Example 76]",
    "pIC50": 7.89
  },
  {
    "Compound": "C[C@H]1Cn2nc(C(F)(F)F)cc2-c2cnc([C@@](C)(O)C(F)(F)F)n21 [Example 4]",
    "pIC50": 7.85
  },
  {
    "Compound": "C[C@H]1Cn2nc(OCC3CN(C(=O)c4ccc(F)cc4)C3)cc2-c2cnc([C@@](C)(O)C(F)(F)F)n21 [Example 66]",
    "pIC50": 7.74
  },
  {
    "Compound": "Cc1cc2n(n1)C[C@H](C)n1c-2cnc1[C@@](C)(O)C(F)(F)F [Example 9]",
    "pIC50": 7.89
  },
  {
    "Compound": "COC(c1nnc2n1C[C@H](C)n1c-2cnc1[C@@](C)(O)C(F)(F)F)(C(F)(F)F)C(F)(F)F [Example 93]",
    "pIC50": 7.68
  },
  {
    "Compound": "C[C@H]1Cn2nc(OCc3ccccc3)cc2-c2cnc([C@@](C)(O)C(F)(F)F)n21 [Example 27]",
    "pIC50": 7.96
  },
  {
    "Compound": "C[C@H]1Cn2nc(OC(C)(C)C(C)(C)O)cc2-c2cnc([C@@](C)(O)C(F)(F)F)n21 [Example 80]",
    "pIC50": 7.89
  },
  {
    "Compound": "C[C@H]1Cn2nc(OCCC3(C#N)CC3)cc2-c2cnc([C@@](C)(O)C(F)(F)F)n21 [Example 88]",
    "pIC50": 7.77
  },
  {
    "Compound": "C[C@H]1Cn2nc(OCCOC(F)F)cc2-c2cnc([C@@](C)(O)C(F)(F)F)n21 [Example 96]",
    "pIC50": 7.89
  },
  {
    "Compound": "C[C@H]1Cn2nc(OCC3(C#N)CC3)cc2-c2cnc([C@@](C)(O)C(F)(F)F)n21 [Example 51]",
    "pIC50": 7.77
  },
  {
    "Compound": "C[C@H]1Cn2nc(OC(C)(C)C)cc2-c2cnc([C@@](C)(O)C(F)(F)F)n21 [Example 55]",
    "pIC50": 7.80
  },
  {
    "Compound": "C[C@H]1Cn2nc(OCC3(CC#N)CC3)cc2-c2cnc([C@@](C)(O)C(F)(F)F)n21 [Example 57]",
    "pIC50": 7.66
  },
  {
    "Compound": "C[C@H]1Cn2nc(OC3CCOCC3)cc2-c2cnc([C@@](C)(O)C(F)(F)F)n21 [Example 77]",
    "pIC50": 7.77
  },
  {
    "Compound": "C[C@H]1Cc2c(C3CC3)noc2-c2cnc([C@@](C)(O)C(F)(F)F)n21 (racemic) [Example 34]",
    "pIC50": 7.68
  },
  {
    "Compound": "C[C@H]1Cn2nc(Oc3ccnc(C(F)(F)F)c3)cc2-c2cnc([C@@](C)(O)C(F)(F)F)n21 [Example 86]",
    "pIC50": 7.80
  },
  {
    "Compound": "C[C@H]1Cn2nc(O)cc2-c2cnc([C@@](C)(O)C(F)(F)F)n21 [Example 28]",
    "pIC50": 7.66
  }
]

----------
# Assay System: human PDHK2 (hPDHK2) (Homo sapiens, UniProt Q15119)
# Method Summary: Inhibitory action of PDHK2 activity (residual PDH activity, NADH absorbance at 340 nm)
# Assay Context: PDH/hPDHK2 complex, PDHK reaction 45 min at room temperature
pIC50: −log10 of the molar value.
Measured Attribute: pIC50

[
  {
    "Compound": "C[C@H]1Cn2nc(C(F)F)cc2-c2cnc([C@@](C)(O)C(F)(F)F)n21",
    "Result Operator": "=",
    "Reported Measurement": 7.42
  },
  {
    "Compound": "C[C@H]1Cn2c(nnc2C(O)(C(F)(F)F)C(F)(F)F)-c2cnc([C@@](C)(O)C(F)(F)F)n21",
    "Result Operator": "=",
    "Reported Measurement": 7.80
  },
  {
    "Compound": "Cc1cnn2c1-c1cnc([C@@](C)(O)C(F)(F)F)n1[C@@H](C)C2",
    "Result Operator": "=",
    "Reported Measurement": 7.09
  },
  {
    "Compound": "C[C@H]1Cn2nc(OCC3CN(S(C)(=O)=O)C3)cc2-c2cnc([C@@](C)(O)C(F)(F)F)n21",
    "Result Operator": "=",
    "Reported Measurement": 7.89
  },
  {
    "Compound": "C[C@H]1Cn2c(nnc2C(F)(F)Oc2ccc(F)cc2)-c2cnc([C@@](C)(O)C(F)(F)F)n21",
    "Result Operator": "=",
    "Reported Measurement": 8.20
  },
  {
    "Compound": "C[C@H]1Cn2nc(C(=O)O)cc2-c2cnc([C@@](C)(O)C(F)(F)F)n21",
    "Result Operator": "=",
    "Reported Measurement": 7.68
  },
  {
    "Compound": "C[C@H]1Cn2c(nnc2C(C)(F)F)-c2cnc([C@@](C)(O)C(F)(F)F)n21",
    "Result Operator": "=",
    "Reported Measurement": 7.82
  },
  {
    "Compound": "C[C@H]1Cc2c(C(F)(F)F)nn(C)c2-c2cnc([C@@](C)(O)C(F)(F)F)n21 (racemic)",
    "Result Operator": "<",
    "Reported Measurement": 7.00
  },
  {
    "Compound": "C[C@H]1Cn2nc(Oc3cc(C4CC4)ncn3)cc2-c2cnc([C@@](C)(O)C(F)(F)F)n21",
    "Result Operator": "=",
    "Reported Measurement": 7.92
  },
  {
    "Compound": "C[C@H]1Cn2nc(C3CC3)cc2-c2cnc([C@@](C)(O)C(F)(F)F)n21",
    "Result Operator": "=",
    "Reported Measurement": 7.89
  },
  {
    "Compound": "C[C@H]1Cn2nc(C(F)(F)F)cc2-c2nnc([C@@](C)(O)C(F)(F)F)n21",
    "Result Operator": "=",
    "Reported Measurement": 7.89
  },
  {
    "Compound": "C[C@H]1Cn2c(-c3ccc(F)cc3C(F)(F)F)nnc2-c2cnc([C@@](C)(O)C(F)(F)F)n21",
    "Result Operator": "=",
    "Reported Measurement": 8.15
  },
  {
    "Compound": "CC(=O)N1CCC(COc2cc3n(n2)C[C@H](C)n2c-3cnc2[C@@](C)(O)C(F)(F)F)CC1",
    "Result Operator": "=",
    "Reported Measurement": 7.72
  }
]
